- Test System: mFPR1 receptor (Mus musculus)
- Sequence (P33766 whole entry): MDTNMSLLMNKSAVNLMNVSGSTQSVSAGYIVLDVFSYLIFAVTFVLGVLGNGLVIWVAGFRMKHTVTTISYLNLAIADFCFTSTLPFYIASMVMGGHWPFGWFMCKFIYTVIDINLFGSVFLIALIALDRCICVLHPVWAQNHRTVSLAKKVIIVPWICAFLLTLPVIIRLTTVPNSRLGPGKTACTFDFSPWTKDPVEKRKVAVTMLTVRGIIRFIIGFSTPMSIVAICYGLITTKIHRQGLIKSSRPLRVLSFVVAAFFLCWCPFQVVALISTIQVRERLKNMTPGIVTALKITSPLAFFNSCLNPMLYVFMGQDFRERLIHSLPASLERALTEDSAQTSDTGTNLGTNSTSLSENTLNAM
- Test Details: Functional assay with mFPR1 receptor
- Experimental Parameters: read-out: function affinity with mFPR1 receptor
Recorded Metric: EC50

State its EC50 for this molecule: CC(C)c1c(NC(=O)Nc2ccc(Cl)cc2)c(=O)n(-c2ccccc2)n1C [Compound 1]
~50 nM

====

- Test System: mFPR2/ALX (Mus musculus)
- Construct: expressed in transfected cells; host or cells: CHO-A12
- Sequence (O88536 whole entry): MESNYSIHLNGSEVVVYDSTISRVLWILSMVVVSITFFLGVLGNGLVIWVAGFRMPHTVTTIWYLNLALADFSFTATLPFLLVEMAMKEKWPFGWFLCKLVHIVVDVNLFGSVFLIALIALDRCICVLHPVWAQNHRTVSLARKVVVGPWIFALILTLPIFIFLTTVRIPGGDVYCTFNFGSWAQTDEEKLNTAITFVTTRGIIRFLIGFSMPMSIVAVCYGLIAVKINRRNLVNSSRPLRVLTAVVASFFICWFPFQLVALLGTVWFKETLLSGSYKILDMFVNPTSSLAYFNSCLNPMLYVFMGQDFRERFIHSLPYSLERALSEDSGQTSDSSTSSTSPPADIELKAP
- Test Details: cAMP assay in CHO-A12 cell line over-expressing mouse mFPR2
- Format: cell-based
- Experimental Parameters: CHO-A12 cells over-expressing mFPR2; read-out: potency as activator of mFPR2/ALX
Recorded Metric: pEC50
One number for each entry, as −log10 of the molar value.

State its pEC50 for this compound: CC(C)c1c(NC(=O)Nc2ccc(Cl)cc2)c(=O)n(-c2ccccc2)n1C
7.70

====

- Test System: mFPR3 (Mus musculus)
- Sequence (O08790 whole entry): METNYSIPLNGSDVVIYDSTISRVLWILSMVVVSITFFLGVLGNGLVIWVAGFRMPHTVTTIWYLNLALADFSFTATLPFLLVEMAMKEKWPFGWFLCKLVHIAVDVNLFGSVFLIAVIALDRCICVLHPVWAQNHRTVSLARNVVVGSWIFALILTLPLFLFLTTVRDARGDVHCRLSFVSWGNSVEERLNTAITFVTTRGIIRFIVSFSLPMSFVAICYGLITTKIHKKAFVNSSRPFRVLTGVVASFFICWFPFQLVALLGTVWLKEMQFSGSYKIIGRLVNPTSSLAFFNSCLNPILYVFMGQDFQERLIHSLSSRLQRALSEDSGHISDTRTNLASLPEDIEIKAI
- Test Details: cAMP assay in CHO-A12 cell line over-expressing mouse mFPR3
- Experimental Parameters: CHO-A12 cells over-expressing mFPR3; read-out: activity against mFPR3
pEC50: −log10 of the molar value.
Recorded Metric: pEC50

State its pEC50 for this molecule: CC(C)c1c(NC(=O)Nc2ccc(Cl)cc2)c(=O)n(-c2ccccc2)n1C
< 5.00
